Would you kindly list pIC50 for each of these sequences?
- system under test: HLA-A*02:02
- assay procedure: IEDB peptide-MHC binding, cellular MHC/competitive/fluorescence; bounds were set here for any values at or beyond the usual limits of such assays
- condition details: source organism: Mammarenavirus machupoense
One number for each entry, as −log10 of the molar value.

| biopolymer sequence | pIC50 |
| --- | --- |
| YNCKCCWFA | 4.79 |

Consider the additional sequence presented here.
[ask] What value of pIC50 has been reported for the following sequence? YNFSLSAAV
[reply] 4.33

###

- system under test: HLA-A*02:01
- assay procedure: IEDB peptide-MHC binding, cellular MHC/competitive/fluorescence; bounds were set here for any values at or beyond the usual limits of such assays
- condition details: source organism: Vaccinia virus WR
value kind: pIC50
Give bare numbers, as −log10 of the molar value.

Batch of 2 sequences: report pIC50 for each.
1. QAKKPEVRI
2. KVTINNLKMM

[reply]
4.40
4.45

Batch of 6 sequences: report pIC50 for each.
1. DQDTMLFASA
2. DASLMDMIT
3. GLCNYGGILI
4. EVRKYFCVKT
5. ELTSNCTRTT
6. PLSKVHGLDV

[reply]
5.13
4.98
4.62
4.63
4.82
4.42

Batch of 7 sequences: report pIC50 for each.
1. IVISPMGKLT
2. GTKGKLYIA
3. FVVNGHTCM
4. PAAMYQYIFL
5. DISMSLYKDL
6. IVMTPSPFYT
7. YAVLSEYETM

[reply]
1. 4.28
2. 4.63
3. 4.65
4. 5.25
5. 5.01
6. 5.19
7. 5.26
